Molecular target: RAC-alpha serine/threonine-protein kinase (Homo sapiens);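 also: reported values are mean inhibition figures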
Conditions: at 0.1 µM
quantity_kind: inhibition (%)
Field: numeric (%). Do not append units.

[
  {
    "compound": "CS(=O)(=O)CCNCc1ccc(-c2ccc3ncnc(Nc4ccc(OCc5cccc(F)c5)c(C(F)(F)F)c4)c3c2)o1",
    "inhibition / %": 1.75
  },
  {
    "compound": "Cc1cccc(-c2n[nH]cc2-c2ccc3ncccc3n2)n1",
    "inhibition / %": -0.73
  },
  {
    "compound": "NCc1ccc(-c2nc(-c3ccc(Cl)c(O)c3)c(-c3ccncc3)[nH]2)cc1",
    "inhibition / %": 0.06
  },
  {
    "compound": "CC1=C(C(=O)Nc2ccc3[nH]ncc3c2)C(c2ccc(Cl)c(Cl)c2)CC(=O)N1 (stereo unspecified)",
    "inhibition / %": -0.08
  },
  {
    "compound": "NS(=O)(=O)c1cccc(-c2ccc3c(NC(=O)C4CC4)n[nH]c3c2)c1",
    "inhibition / %": -2.14
  }
]

Turning now to a further record.
Answer with the recorded inhibition of CCn1c(-c2nonc2N)nc2cncc(C(=O)N3CC[C@H](N)C3)c21 only.
3.33

###

Target: Receptor tyrosine-protein kinase erbB-2 (Homo sapiens) (UniProt P04626)
Sequence (P04626 whole entry): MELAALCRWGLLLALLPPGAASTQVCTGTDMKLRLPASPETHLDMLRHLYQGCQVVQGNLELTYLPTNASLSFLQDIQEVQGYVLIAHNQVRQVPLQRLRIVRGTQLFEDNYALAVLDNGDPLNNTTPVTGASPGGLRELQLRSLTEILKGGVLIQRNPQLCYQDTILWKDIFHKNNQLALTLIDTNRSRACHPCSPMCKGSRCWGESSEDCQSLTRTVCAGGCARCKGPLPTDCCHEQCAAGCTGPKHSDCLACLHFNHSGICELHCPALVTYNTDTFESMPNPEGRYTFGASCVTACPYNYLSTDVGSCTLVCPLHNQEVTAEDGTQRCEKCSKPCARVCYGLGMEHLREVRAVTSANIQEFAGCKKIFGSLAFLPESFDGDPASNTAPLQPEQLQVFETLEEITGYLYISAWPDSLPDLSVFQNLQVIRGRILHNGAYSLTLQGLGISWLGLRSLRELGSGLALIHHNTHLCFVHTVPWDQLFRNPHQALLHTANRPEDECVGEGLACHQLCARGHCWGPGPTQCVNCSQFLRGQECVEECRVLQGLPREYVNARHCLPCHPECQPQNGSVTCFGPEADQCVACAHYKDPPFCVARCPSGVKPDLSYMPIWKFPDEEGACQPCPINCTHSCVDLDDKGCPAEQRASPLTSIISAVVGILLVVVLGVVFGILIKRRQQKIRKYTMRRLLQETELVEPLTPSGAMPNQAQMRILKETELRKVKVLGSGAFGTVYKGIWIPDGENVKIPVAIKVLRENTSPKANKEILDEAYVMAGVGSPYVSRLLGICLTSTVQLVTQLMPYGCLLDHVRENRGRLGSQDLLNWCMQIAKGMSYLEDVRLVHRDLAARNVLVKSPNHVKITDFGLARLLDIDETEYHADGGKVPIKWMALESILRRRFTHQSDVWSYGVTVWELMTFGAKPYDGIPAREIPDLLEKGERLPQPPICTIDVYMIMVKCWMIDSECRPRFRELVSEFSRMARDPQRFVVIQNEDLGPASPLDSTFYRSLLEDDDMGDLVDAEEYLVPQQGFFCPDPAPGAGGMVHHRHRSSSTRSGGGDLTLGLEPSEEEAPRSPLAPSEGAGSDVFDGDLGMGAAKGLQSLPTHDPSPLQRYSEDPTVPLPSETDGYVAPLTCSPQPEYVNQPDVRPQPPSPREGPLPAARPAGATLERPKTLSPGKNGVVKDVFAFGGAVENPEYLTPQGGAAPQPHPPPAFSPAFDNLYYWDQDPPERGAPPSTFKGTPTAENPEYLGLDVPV
Conditions: at 1 µM
Description: GSK_PKIS: ERBB2 mean inhibition at 1 uM [Nanosyn]
quantity_kind: inhibition (%)
Supply the numeric figure in %, leaving out any unit text.

Look over these answered cases.
[
  {
    "compound": "COc1cc(C)c(NC(=O)CN(C)C)cc1Nc1nc(Nc2cccc(F)c2C(N)=O)c2cc[nH]c2n1",
    "assayed_system": "Receptor tyrosine-protein kinase erbB-2 (Homo sapiens) (UniProt P04626)",
    "inhibition, %": -0.4
  },
  {
    "compound": "COc1ccc(COc2ccc(Cc3cnc(N)nc3N)cc2OC)cc1",
    "assayed_system": "Receptor tyrosine-protein kinase erbB-2 (Homo sapiens) (UniProt P04626)",
    "inhibition, %": -2.79
  },
  {
    "compound": "COc1ccc(-c2coc3ncnc(N)c23)cc1",
    "assayed_system": "Receptor tyrosine-protein kinase erbB-2 (Homo sapiens) (UniProt P04626)",
    "inhibition, %": -4.24
  },
  {
    "compound": "Cc1cc(O)cc(C)c1/C=C/c1cncc(-c2nn[nH]n2)c1",
    "assayed_system": "Receptor tyrosine-protein kinase erbB-2 (Homo sapiens) (UniProt P04626)",
    "inhibition, %": 0.56
  },
  {
    "compound": "CS(=O)(=O)CCNCc1nc(-c2ccc3ncnc(Nc4ccc(F)c(Cl)c4)c3c2)cs1",
    "assayed_system": "Receptor tyrosine-protein kinase erbB-2 (Homo sapiens) (UniProt P04626)",
    "inhibition, %": 34.5
  }
]

Consider the compound CC1=C(C(=O)Nc2ccc3[nH]ncc3c2)C(c2ccc(F)cc2)NC(=O)N1 (stereo unspecified) . State its measured inhibition.
-0.74

###

Target: Sphingosine kinase 1 (Homo sapiens) (UniProt Q9NYA1);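 also: mean percent inhibition of SPHK1 activity, measured within the GSK PKIS screening panel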
Sequence (Q9NYA1 whole entry): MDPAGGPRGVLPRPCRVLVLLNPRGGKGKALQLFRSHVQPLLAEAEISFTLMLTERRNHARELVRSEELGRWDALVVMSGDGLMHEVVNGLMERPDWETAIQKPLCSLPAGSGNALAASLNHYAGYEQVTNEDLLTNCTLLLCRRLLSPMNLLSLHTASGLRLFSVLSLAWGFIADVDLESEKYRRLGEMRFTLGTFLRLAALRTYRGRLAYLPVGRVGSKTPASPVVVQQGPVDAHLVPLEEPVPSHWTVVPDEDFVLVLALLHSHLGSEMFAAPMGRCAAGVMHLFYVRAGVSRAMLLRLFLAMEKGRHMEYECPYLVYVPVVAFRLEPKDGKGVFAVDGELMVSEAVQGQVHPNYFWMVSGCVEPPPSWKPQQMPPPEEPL
Conditions: at 0.1 µM
quantity_kind: inhibition (%)
Use % as the unit, but write only the number.

Please list inhibition recorded for the molecule COC(=O)Nc1nc2cc(Oc3ccc(NC(=O)Nc4cccc(C(=O)O)c4)cc3)ccc2[nH]1
0.94

###

System: Proto-oncogene tyrosine-protein kinase receptor Ret (Homo sapiens), P07949 [Y791F]
Sequence (P07949 whole entry Y791F): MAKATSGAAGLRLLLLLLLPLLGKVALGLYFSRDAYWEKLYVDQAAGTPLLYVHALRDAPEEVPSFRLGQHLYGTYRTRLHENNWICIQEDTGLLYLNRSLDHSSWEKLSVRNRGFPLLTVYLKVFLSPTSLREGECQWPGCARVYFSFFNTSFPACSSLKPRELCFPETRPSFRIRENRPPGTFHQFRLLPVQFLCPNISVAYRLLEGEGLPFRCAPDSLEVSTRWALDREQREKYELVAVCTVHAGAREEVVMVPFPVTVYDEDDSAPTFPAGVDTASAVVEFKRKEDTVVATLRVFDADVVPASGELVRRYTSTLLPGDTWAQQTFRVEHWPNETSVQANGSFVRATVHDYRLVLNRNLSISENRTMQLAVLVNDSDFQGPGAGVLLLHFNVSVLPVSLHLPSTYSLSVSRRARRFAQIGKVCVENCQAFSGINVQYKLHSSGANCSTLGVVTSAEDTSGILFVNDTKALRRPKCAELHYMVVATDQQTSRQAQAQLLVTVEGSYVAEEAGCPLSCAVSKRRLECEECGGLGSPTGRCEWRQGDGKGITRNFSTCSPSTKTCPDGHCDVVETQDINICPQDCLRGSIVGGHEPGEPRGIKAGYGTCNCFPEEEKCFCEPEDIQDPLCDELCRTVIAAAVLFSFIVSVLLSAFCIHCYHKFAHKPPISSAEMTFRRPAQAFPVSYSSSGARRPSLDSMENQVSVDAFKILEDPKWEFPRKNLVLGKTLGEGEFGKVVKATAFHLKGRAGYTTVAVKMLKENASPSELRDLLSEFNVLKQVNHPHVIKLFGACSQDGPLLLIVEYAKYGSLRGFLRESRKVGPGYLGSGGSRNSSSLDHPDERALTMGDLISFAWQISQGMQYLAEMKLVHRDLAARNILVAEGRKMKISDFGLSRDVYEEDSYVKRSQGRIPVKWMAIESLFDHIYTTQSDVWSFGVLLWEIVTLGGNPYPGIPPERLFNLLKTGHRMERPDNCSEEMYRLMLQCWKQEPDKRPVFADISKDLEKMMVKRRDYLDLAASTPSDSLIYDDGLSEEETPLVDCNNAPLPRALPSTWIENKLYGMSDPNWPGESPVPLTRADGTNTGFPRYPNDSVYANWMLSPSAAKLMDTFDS
Settings: at 1 µM
# Lookup of reported inhibition keyed by entry
// units = %; emit number, no label

[
  {
    "smiles": "CCn1c(-c2nonc2N)nc2cncc(C(=O)N3CCNCC3)c21",
    "inhibition / %": 5.78
  },
  {
    "smiles": "CCn1c(-c2nonc2N)nc2c(C#CC(C)(C)O)nc(CN3CCCC3)cc21",
    "inhibition / %": 14.5
  },
  {
    "smiles": "CC(C)=Cc1cccc2c1/C(=N/Nc1ccc(S(N)(=O)=O)cc1)C(=O)N2",
    "inhibition / %": 50.3
  },
  {
    "smiles": "Fc1cccc(COc2ccc(Nc3ncnc4sc(-c5cccs5)cc34)cc2Cl)c1",
    "inhibition / %": 2.09
  },
  {
    "smiles": "Cc1cc(O)cc(C)c1/C=C/c1cncc(-c2nn[nH]n2)c1",
    "inhibition / %": 14.4
  },
  {
    "smiles": "CCCN1CCC(Oc2cc(Nc3nc(Nc4cccc(F)c4C(N)=O)c4cc[nH]c4n3)c(OC)cc2Cl)CC1",
    "inhibition / %": 16.9
  },
  {
    "smiles": "CS(=O)(=O)CCNCc1ccc(-c2ccc3ncnc(Nc4ccc(OCc5cccc(F)c5)c(C(F)(F)F)c4)c3c2)o1",
    "inhibition / %": 3.86
  }
]

Proceed to the following item.
For Nc1ncnc2occ(-c3ccc(NC(=O)Nc4cccc(C(F)(F)F)c4)cc3)c12 , write its inhibition.
86.3

Values from ChEMBL document CHEMBL1961873
